- System: MDA-MB-435
- test name: NCI tumour cell line growth inhibition, 48 h
Calls of active or inactive are those of the source. Cut-off read from the data, not from the text of the source: active = GI50 up to about 1.1 µM and inactive = higher.
recorded metric: GI50

# annotated cases, reported GI50 shown
Cc1c2cccc-2c(OCCO)cc2c3ccccc3n(C)c12 4.35 µM (inactive)
CSc1nc(SC)c2c(C)cn(Cc3ccccc3)c2n1 33.2 µM (inactive)
Cc1nc(Cl)c(CBr)c(Cl)n1 1.64 µM (inactive)
CC1=C(C)C1[N+](=O)[O-] > 100 µM (inactive)
CN/C(N)=N/N=C1/C(=O)Nc2ccccc21 > 100 µM (inactive)

q: Entry CC(C)CN(CC#N)CC(C)C : reported GI50 = ?
a: > 100 µM (inactive)

q: What value of GI50 has been recorded for this entry: COc1cc2c(c(O)c1OC)C(=O)[C@@H]1CCC(=O)N1C2
a: > 100 µM (inactive)

---

- System: RXF 393
- test name: NCI tumour cell line growth inhibition, 48 h
The source made the active and inactive calls. No stated cut-off is given here; in the data, active = GI50 up to about 1.1 µM and inactive = higher.
Recorded GI50 by entry

molecule	test target	GI50
CS(=O)(=O)Nc1ccc(NCc2c[nH]c3ccc4ncccc4c23)cc1	RXF 393	23.9 µM (inactive)

q: Need GI50, item CC1C[C@]2(C)C(NCCN)=Nc3ccccc3[C@@H]2N(C)c2ccccc21 (some centres undefined)
a: 8.85 µM (inactive)

---

# GI50 values compiled below
- Test system: UACC-62
- test name: NCI tumour cell line growth inhibition, 48 h
Active and inactive are the calls of the source. Cut-off read from the data, not from the text of the source: active = GI50 up to about 1.1 µM and inactive = higher.

q: Which GI50 is listed for COC(=O)CC(NC(=O)OCc1ccccc1)C(C(C)=O)C(=O)OCc1ccccc1 (stereo not given) ?
a: > 31.6 µM (inactive)

q: Using the record for COc1ccc(OC)c(C2Cc3cnc4nc(N)nc(N)c4c3C2)c1 (stereo not given) , report its GI50.
a: 18.6 µM (inactive)

q: If you can, please state the reported GI50 value of CC1C/C(=N\N(C)C)C(C#N)(C#N)C1(C#N)C#N (stereo not given) .
a: 13.8 µM (inactive)

q: Given the compound COC(=O)C1=COC(C)C2C[n+]3ccc4c([nH]c5ccccc54)c3CC12 (stereo not given) , what is its reported GI50?
a: > 100 µM (inactive)

q: Form field: reported GI50 of O=C(CN1CCN(c2ccccn2)CC1)N1CCCn2c1nc1ccccc1c2=O
a: > 100 µM (inactive)

q: Report GI50 for Cc1ccccc1NC(=O)C(=O)CC(=O)c1sc(-n2nc(-c3ccccc3)cc2-c2ccccc2)nc1C please.
a: > 100 µM (inactive)

q: # query: GI50 of entry COc1ccc(C)cc1NC(=S)N/N=C/c1ccc(SC)cc1
a: > 100 µM (inactive)

q: Give its GI50 value. Item: O=C(CC(C(=O)c1cccs1)c1ccsc1)c1ccccc1 (stereo not given)
a: 50.7 µM (inactive)

q: Requested read-out: GI50. Entry: CC(=O)OC1COC(n2ccc3cc(Br)c([N+](=O)[O-])cc32)C(OC(C)=O)C1OC(C)=O (stereo not given)
a: 17.6 µM (inactive)

q: Please look up its GI50: Cc1ccc(S(=O)(=O)/N=C2/N(C)CCCS2(=O)=O)cc1
a: > 100 µM (inactive)

---

Measured GI50 by item
- System: CCRF-CEM
- test name: NCI tumour cell line growth inhibition, 48 h
Active and inactive are the calls of the source. No stated cut-off is given here; in the data, active = GI50 up to about 1.1 µM and inactive = higher.

molecule	GI50
CCN1CCC(O)(c2ccccc2)C(C(=O)c2ccccc2)C1 (stereo not given)	15.7 µM (inactive)
N=C(N)NS(=O)(=O)c1ccc(/N=N/c2c(O)c(C(=O)O)cc3ccccc23)cc1	> 100 µM (inactive)
COc1ccc(C)cc1NC(=S)N/N=C/c1ccc(SC)cc1	54.8 µM (inactive)

q: Any idea what its GI50 is? The molecule is CC1(Cl)C(=O)NC(=O)N(C2CC(N=[N+]=[N-])C(CO)O2)C1N=[N+]=[N-] (stereo not given)
a: > 100 µM (inactive)

q: Look up GI50: Fc1cccc(Cl)c1C1SCc2nc3cc4ccccc4cc3n21 (stereo not given)
a: > 100 µM (inactive)

q: For COC(=O)C1CCCC2(C1)OCCO2 (stereo not given) , what is its reported GI50?
a: > 100 µM (inactive)

q: Need GI50, item Cc1ccc(NC(=O)c2cc(S(=O)(=O)Nc3n[nH]c(=O)[nH]3)c(SSc3cc(Cl)c(C(=O)Nc4ccc(C)cc4)cc3S(=O)(=O)Nc3n[nH]c(=O)[nH]3)cc2Cl)cc1
a: > 100 µM (inactive)

q: Please report the recorded GI50 for CC1(CCCO)CCCCCCCCCC(C)(CCCO)C1=O (stereo not given) .
a: 55 µM (inactive)

q: Data request, read-out GI50, for COc1cc(CCCOC(=O)/C=C/c2ccc(O)c(O)c2)cc(O)c1O
a: 30.8 µM (inactive)

q: Would you kindly share the measured GI50 for CN/C(N)=N/N=C1/C(=O)Nc2ccccc21 ?
a: > 100 µM (inactive)

---

- System: M14
- test name: NCI tumour cell line growth inhibition, 48 h
Active and inactive are the calls of the source. Rule as the data show it: active = GI50 up to about 1.1 µM and inactive = higher.
Recorded GI50 by entry

Solved cases below.
compound	GI50
CC1=NN(C(=O)CC(=O)Nc2ccccc2F)C(=O)C1/N=N/c1ccccc1[N+](=O)[O-] (centres undefined)	> 100 µM (inactive)
O=C(NC1CC1)c1c(O)[nH]c(=S)[nH]c1=O	> 100 µM (inactive)
Cc1ccc(CC2(OCCN(C)C)CCC(C(C)(C)C)CC2)cc1 (centres undefined)	1.87 µM (inactive)
CC1C[C@]2(C)C(NCCN)=Nc3ccccc3[C@@H]2N(C)c2ccccc21 (some centres undefined)	1.9 µM (inactive)
CN(C)CC1CCC(CN(C)C)C1=O (centres undefined)	2.91 µM (inactive)
C=C1C(=O)C23CC1CCC2C12CO[C@@H]4OCC(C)(CC[C@@H]1OC3=O)C42 (some centres undefined)	1.31 µM (inactive)
[O-][S+](Cc1ccccc1)c1ccccc1Cn1cccc1 (centres undefined)	> 100 µM (inactive)
CCOC(=O)/C(C(N)=O)=C(/O)c1cnccn1	> 100 µM (inactive)

q: Please report the recorded GI50 for Cc1cc2nc(N3C(=O)/C(=C/c4ccccc4S)N=C3c3ccccc3)sc2cc1C .
a: 34 µM (inactive)

---

- Tested on: OVCAR-3
- test name: NCI tumour cell line growth inhibition, 48 h
Active and inactive are the calls of the source. Rule as the data show it: active = GI50 up to about 1.1 µM and inactive = higher.
A collection of compounds and their measured GI50

q: What does the record list as GI50 for CN(C)CCCOc1ccc(/C=C2/CCC/C(=C/c3ccc(OCCCN(C)C)cc3)C2=O)cc1 ?
a: 2.26 µM (inactive)

q: For COC(=O)C(CC(=O)c1c[nH]c2ccccc12)c1c[nH]c2ccccc12 (stereo not drawn) , what is its reported GI50?
a: > 10 µM (inactive)

q: GET /values?readout=GI50&item= Fc1cccc(Cl)c1C1SCc2nc3cc4ccccc4cc3n21 (stereo not drawn)
a: 66.1 µM (inactive)

q: Form field: reported GI50 of O=C1CCCCCCCCCCC(=O)C2CCOCCOCCOCCC1Cc1cccc(n1)C2
a: 40.6 µM (inactive)

q: May I ask what GI50 has been recorded for Cc1ccc(S(=O)(=O)NC2C(=O)c3ccccc3C(=O)C2n2cnc3ccccc32)cc1 (stereo not drawn) ?
a: 4.3 µM (inactive)

q: Returns the measured GI50 for the input compound. Input: CC(C)(C)NC(=O)N1N=C(c2ccccc2)C1c1ccccc1 (stereo not drawn)
a: 21.5 µM (inactive)

q: Which GI50 is listed for CC(C)(C)C1=Nc2c(Br)cc(C(C)(C)C)cc2C(C(F)(F)F)(C(F)(F)F)O1 ?
a: 17 µM (inactive)

q: Quick one: GI50 for Nc1nc(Cl)cc(NCC(O)CO)n1 (stereo not drawn) ?
a: > 100 µM (inactive)

---

- Tested on: OVCAR-3
- test name: NCI tumour cell line growth inhibition, 48 h
Active and inactive are the calls of the source. No stated cut-off is given here; in the data, active = GI50 up to about 1.1 µM and inactive = higher.
Your reply should match one of these outcome classes. active, inactive

compound	assigned class
O=C1c2ccccc2C2(O)N(c3ccccc3)C(=S)N(c3ccccc3)C12O (centres undefined)	inactive
COc1ccc(N2C(=O)CS(=O)(=O)C2c2cccc(Oc3ccccc3)c2)cc1 (centres undefined)	inactive
Cc1ccc2c(O)cc(-c3csc4ccccc34)nc2n1	active
C/C(=N\c1ccc(Cl)cc1)c1ccncc1	inactive

q: // return assay outcome for CC(=O)c1ccc(/N=N/c2ccc3nonc3c2N)cc1
a: inactive

q: I would be grateful if you could indicate the recorded call for CN(CCCCCl)P(=O)(OCc1ccc([N+](=O)[O-])o1)OCC1OC(n2ccc(N)nc2=O)C(O)C1O (centres undefined) .
a: inactive

q: Any idea what this test logged for CCN(CC)c1c(C)nnn1C1OC(COC(C)=O)C(OC(C)=O)C(OC(C)=O)C1OC(C)=O (centres undefined) ?
a: inactive

---

# reported GI50; entries follow
- System: SK-MEL-2
- test name: NCI tumour cell line growth inhibition, 48 h
Counter-ions that a name gives are not always drawn. The source made the active and inactive calls. Rule as the data show it: active = GI50 up to about 1.1 µM and inactive = higher.

compound	GI50
O=C1C=C2S[C@H]3C[C@]2(C=C1Br)C1=C(N3)C(=O)c2[nH]cc3c2C1=NCC3 [(+)-DISCORHABDIN B]	0.469 µM (active)
S=C(S)NCC1CCC(CNC(=S)S)CC1 (centres undefined)	23.3 µM (inactive)
CN(C)CCNC(=O)C(C)(C)Oc1ccc(C(=O)c2ccc(Cl)cc2)cc1Cl	18 µM (inactive)

q: Form entry - test system: SK-MEL-2; read-out: GI50; compound: COc1ccc(/N=C2\C(=S)N(c3ccc(OC)cc3)/C(=N/S(=O)(=O)c3ccccc3)N2c2ccccc2)cc1
a: 7.64 µM (inactive)

q: Can you look up GI50 on SK-MEL-2 for CCN(CC)CCCNC(=O)c1ccc([N+](=O)[O-])cc1O ?
a: > 100 µM (inactive)

q: Entry O=C(CNc1ccc([N+](=O)[O-])cc1)Nn1c(-c2ccccc2)nc2ccccc2c1=O , system SK-MEL-2: what GI50 was measured?
a: 2.15 µM (inactive)

q: Give GI50 (SK-MEL-2) of the following compound: CN1C[C@H](C(=O)N[C@]2(C)O[C@@]3(O)[C@@H]4CCCN4C(=O)[C@H](Cc4ccccc4)N3C2=O)C=C2c3cccc4[nH]cc(c34)C[C@H]21 [ERGOTAMINE TARTRATE]
a: 17.4 µM (inactive)

q: Missing value: GI50, SK-MEL-2, entry OCC1OC(c2ccccc2)CC1O (centres undefined) . Fill in?
a: > 100 µM (inactive)
